- Tested on: MOLT-4 leukemia
- Test name: NCI tumour cell line growth inhibition, 48 h
Parameter measured: GI50

{"columns": ["Compound", "Recorded result"],
 "data": [
  ["COc1ccc2[nH]c(O)c(/C=c3/ccc4c(c3)N=C(c3ccc(F)cc3)N=4)c2c1", "13.9 µM"],
  ["COc1ccc(Oc2cc(NCCC(F)(F)F)c3ncc(-c4ccc(C(=O)NC5CC5)c(C)c4)n3n2)c(F)c1F", "2.03 µM"],
  ["COc1ccc2nccc(/C=C/c3ccnc4ccc(OC)cc34)c2c1", "> 55.1 µM"],
  ["Cc1cc2c(cc1C)[n+](Cc1ccc3ccccc3n1)cn2Cc1ccc2ccccc2n1", "1.46 µM"],
  ["O=C(Nc1cccc(-n2cc(-c3ccncc3)c(-c3ccc(O)c(Cl)c3)n2)c1)c1ccc(Cl)c(Cl)c1", "7.19 µM"]
]}
